Read-out: Vascular cell adhesion molecule 1 (VCAM1), VCAM1 (gene 7412)
Assay: BSK_hDFCGF_VCAM1: BioMAP Diversity Plus: hDFCGF Assay for Vascular cell adhesion molecule 1 (VCAM1) Biomarker Activity (AID 2283065)
Conditions: primary human foreskin fibroblasts; actives raise or lower the signal
Activity calls are given as the source filed them. The calls were made as follows: active = hit-call score of the fitted dose curve at least 0.9, where 1 is the maximum; inactive = score below 0.9.
Assign a class; possible classes are 1 = active, 0 = inactive

> print(dat)
                           substance.smiles  cat
1      O=c1c(-c2ccc(O)cc2)coc2cc(O)cc(O)c12    0
2  COc1cccc([C@H](O)C2CCN(CCc3ccc(F)cc3)CC2)c1OC    0
3                   CCCCCCCCCCCC[N+](C)(C)C    1
4                          CCCCCc1ccc(N)cc1    0

(Q) For O=C1O[C@H]([C@@H](O)CO)C(O)=C1O , what call appears in the results of this test?
(A) 0

(Q) Try the molecule c1ccc2n[nH]nc2c1
(A) 0

(Q) Do the same for NCc1cccc(C2CCN(C(=O)c3ccc(C#Cc4ccccc4F)o3)CC2)c1 please
(A) 1
